Molecular target: αIIbβ3 integrin (Homo sapiens, UniProt P05106+P08514)
Construct: from tissue; host or cells: human platelets (Triton X-100 lysate)
Sequence (P08514 32-887 limits assumed): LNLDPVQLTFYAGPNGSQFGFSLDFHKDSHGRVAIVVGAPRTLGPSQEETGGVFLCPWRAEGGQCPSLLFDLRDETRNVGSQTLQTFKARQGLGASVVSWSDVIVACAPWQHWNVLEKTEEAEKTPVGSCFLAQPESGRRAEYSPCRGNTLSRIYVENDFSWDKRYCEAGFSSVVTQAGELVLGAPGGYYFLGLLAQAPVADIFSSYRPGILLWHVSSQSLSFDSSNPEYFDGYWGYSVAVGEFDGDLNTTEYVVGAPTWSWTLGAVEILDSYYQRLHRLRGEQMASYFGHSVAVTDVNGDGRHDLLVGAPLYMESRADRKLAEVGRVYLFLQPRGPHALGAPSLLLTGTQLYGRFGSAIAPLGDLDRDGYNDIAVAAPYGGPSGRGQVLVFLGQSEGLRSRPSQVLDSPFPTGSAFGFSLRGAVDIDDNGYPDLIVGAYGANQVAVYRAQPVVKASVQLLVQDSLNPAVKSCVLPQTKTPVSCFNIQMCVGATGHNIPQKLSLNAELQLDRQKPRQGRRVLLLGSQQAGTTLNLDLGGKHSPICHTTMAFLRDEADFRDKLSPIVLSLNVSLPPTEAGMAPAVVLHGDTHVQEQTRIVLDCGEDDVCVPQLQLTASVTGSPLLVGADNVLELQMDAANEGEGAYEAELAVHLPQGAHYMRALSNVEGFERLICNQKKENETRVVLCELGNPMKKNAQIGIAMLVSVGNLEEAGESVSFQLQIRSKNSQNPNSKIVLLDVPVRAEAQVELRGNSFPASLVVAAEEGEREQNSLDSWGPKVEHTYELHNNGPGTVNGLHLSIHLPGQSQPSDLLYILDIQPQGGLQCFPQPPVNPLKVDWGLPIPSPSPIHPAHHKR
Sequence (P08514 891-1039 partner limits assumed): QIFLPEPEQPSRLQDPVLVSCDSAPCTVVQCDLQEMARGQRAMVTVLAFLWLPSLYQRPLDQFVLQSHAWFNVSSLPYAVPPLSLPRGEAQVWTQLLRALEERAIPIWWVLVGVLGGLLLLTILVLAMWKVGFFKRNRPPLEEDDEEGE
Sequence (P05106 27-788): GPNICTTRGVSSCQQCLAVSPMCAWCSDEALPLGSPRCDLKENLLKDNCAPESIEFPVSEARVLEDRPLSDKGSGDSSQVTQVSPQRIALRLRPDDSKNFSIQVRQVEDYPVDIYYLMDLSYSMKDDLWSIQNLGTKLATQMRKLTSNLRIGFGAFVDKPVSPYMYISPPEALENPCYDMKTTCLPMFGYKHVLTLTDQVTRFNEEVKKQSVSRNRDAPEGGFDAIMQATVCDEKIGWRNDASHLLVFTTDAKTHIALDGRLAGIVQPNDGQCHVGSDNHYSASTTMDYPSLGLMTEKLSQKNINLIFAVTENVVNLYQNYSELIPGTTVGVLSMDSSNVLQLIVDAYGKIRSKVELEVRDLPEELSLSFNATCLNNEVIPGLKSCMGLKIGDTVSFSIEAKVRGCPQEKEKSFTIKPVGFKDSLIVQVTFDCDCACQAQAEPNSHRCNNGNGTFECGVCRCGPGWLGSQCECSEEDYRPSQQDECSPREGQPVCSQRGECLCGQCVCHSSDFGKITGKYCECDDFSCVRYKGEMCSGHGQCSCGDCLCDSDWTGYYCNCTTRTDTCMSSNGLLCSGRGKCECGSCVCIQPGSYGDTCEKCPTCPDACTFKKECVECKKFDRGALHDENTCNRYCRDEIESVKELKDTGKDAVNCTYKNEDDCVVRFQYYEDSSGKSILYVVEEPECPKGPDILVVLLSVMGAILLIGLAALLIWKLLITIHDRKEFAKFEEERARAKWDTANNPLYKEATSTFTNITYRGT
Assay: Assay for the inhibition of αIIbβ3 integrin binding (fibrinogen as ligand, integrin captured from platelet lysate)
Settings: inhibition of specific binding of biotinylated fibrinogen to αIIbβ3 integrin from human platelet lysate
assay.endpoint: log10 IC50 (log10 of the value in nM)
All values: base-10 log of IC50 in nM.

Worked examples follow.
O=C(N[C@@H](CNC(=O)C1CCN(c2cc(F)cc(NC3=NCCCN3)c2)CC1)C(=O)O)OCc1ccccc1 [Ex. 156] ... 1.63
CCCCCCNC(=O)N[C@@H](CNC(=O)C1CCN(c2cccc(NC3=NCCCN3)c2)CC1)C(=O)O [Ex. 117] ... 1.94
O=C(N[C@@H](CCC(=O)N1CCN(c2cccc(NC3=NCCN3)c2)CC1)C(=O)O)OCc1ccccc1 [Ex. 122] ... 2.86

## Task Consider the compound CCOC(=O)N[C@@H](CNC(=O)C1CCN(c2cccc(NC3=NCCCN3)c2)CC1)C(=O)O [Ex. 86] and give its measured log10 IC50.
## Result 2.58

## Task Please give the measured log10 IC50 for this compound: O=C(N[C@@H](CNC(=O)N1CCN(c2cccc(NC3=NCCCN3)c2)CC1)C(=O)O)OCc1ccccc1 [Ex. 145]
## Result 2.58

## Task Could you share which log10 IC50 value was measured for CC(C)OC(=O)N[C@@H](CNC(=O)C1CCN(c2cccc(NC3=NCCCN3)c2)CC1)C(=O)O [Ex. 44] ?
## Result 2.90

---

Molecular target: αIIbβ3 integrin (Homo sapiens, UniProt P05106+P08514)
Construct: from tissue; host or cells: human platelets (Triton X-100 lysate)
Assay: Assay for the inhibition of αIIbβ3 integrin binding (fibrinogen as ligand, integrin captured from platelet lysate)
Conditions: inhibition of specific binding of biotinylated fibrinogen to αIIbβ3 integrin from human platelet lysate
assay.endpoint: IC50

Example entries begin here.
CCCCCCCCCCOC(=O)N[C@@H](CCC(=O)N1CCN(c2cccc(NC3=NCC(F)CN3)c2)CC1)C(=O)O (stereo partly shown) [Ex. 133] ... > 1000 nM
O=C(N[C@@H](CNC(=O)C1CCN(c2cccc(NC3=NCCCN3)c2)CC1)C(=O)O)OCc1ccccc1 [Ex. 2] ... 43 nM
CC(C)COC(=O)N[C@@H](CNC(=O)C1CCN(c2cccc(NC3=NCC(O)CN3)c2)CC1)C(=O)O (stereo partly shown) [Ex. 20] ... 37 nM

Next item in the queue.
## Task Would you mind telling me what IC50 value was observed for Cc1cc(N2CCC(C(=O)NC[C@H](NC(=O)OCc3ccccc3)C(=O)O)CC2)nc(NC2=NCCCN2)n1 [Ex. 150] ?
## Result 52 nM

---

Listed below: IC50 values for each entry.
Biological target: αvβ3 integrin (Homo sapiens, UniProt P05106+P06756)
Sequence (P06756 31-889 limits assumed): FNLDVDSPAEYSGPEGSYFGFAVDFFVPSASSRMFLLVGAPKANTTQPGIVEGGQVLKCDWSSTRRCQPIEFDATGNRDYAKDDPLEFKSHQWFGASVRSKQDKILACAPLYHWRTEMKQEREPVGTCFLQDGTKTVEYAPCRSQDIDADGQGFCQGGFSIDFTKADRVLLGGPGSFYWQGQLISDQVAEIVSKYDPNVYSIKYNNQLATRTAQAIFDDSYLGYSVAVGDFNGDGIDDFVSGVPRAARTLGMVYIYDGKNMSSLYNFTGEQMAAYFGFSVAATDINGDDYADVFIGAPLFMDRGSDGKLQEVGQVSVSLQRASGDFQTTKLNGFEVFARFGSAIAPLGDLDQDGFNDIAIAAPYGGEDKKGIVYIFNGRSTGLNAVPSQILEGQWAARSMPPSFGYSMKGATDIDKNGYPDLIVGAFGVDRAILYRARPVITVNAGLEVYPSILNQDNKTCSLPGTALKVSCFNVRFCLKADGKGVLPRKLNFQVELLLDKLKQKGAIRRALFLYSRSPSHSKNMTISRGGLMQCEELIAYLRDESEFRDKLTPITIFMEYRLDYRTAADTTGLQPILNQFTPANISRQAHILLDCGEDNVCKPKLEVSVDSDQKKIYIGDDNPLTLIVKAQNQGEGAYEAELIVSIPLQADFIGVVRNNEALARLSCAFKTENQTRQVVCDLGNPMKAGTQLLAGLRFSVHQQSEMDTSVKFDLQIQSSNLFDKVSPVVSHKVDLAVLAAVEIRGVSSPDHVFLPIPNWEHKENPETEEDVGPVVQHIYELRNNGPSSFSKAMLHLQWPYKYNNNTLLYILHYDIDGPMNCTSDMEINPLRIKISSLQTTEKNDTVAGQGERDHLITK
Sequence (P06756 891-1048 partner limits assumed): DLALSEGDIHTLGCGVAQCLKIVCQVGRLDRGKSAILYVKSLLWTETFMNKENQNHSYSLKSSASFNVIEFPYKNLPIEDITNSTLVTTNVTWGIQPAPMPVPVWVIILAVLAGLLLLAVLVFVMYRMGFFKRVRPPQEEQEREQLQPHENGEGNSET
Sequence (P05106 27-788): as the sequence (P05106 27-788) above
Test: Assay for the inhibition of αvβ3 integrin binding (vitronectin as ligand)
Set-up: purchased Chemicon International, Inc., USA
Settings: inhibition of specific binding of biotinylated human vitronectin to immobilized αvβ3 integrin
Experimental: Experiment 1: Assay for the Inhibition of αvβ3 integrin binding This experiment was carried out based on the method described in […]. […] The absorbance at 450 nm was measured with a plate reader (Molecular Devices, USA) to obtain a total binding. […] A specific binding was calculated by subtracting the nonspecific binding from the total binding.
A number alone suffices; assume nM.

CCNC(=O)N[C@@H](CCC(=O)N1CCN(c2cccc(NC3=NCCCN3)c2)CC1)C(=O)O ... 3.6
O=C(N[C@@H](CNC(=O)C1CCN(c2cc(F)cc(NC3=NCCCN3)c2)CC1)C(=O)O)OCc1ccccc1 ... 0.055
CCOC(=O)N[C@@H](CNC(=O)C1CCN(c2cccc(NC3=NCCCN3)c2)CC1)C(=O)O ... 0.094
O=C(N[C@@H](CNC(=O)C1CCN(c2cccc(NC3=NCC(F)(F)CN3)c2)CC1)C(=O)O)OCc1ccccc1 ... 0.057

## Task Any idea what IC50 came out for "O=C(N[C@@H](CCC(=O)N1CCN(c2cccc(NC3=NCCN3)c2)CC1)C(=O)O)OCc1ccccc1" on αvβ3 integrin (Homo sapiens, UniProt P05106+P06756)?
## Result 0.16

## Task // fetch αvβ3 integrin (Homo sapiens, UniProt P05106+P06756) IC50 for "O=C(NCc1ccccc1)N[C@@H](CCC(=O)N1CCN(c2cccc(NC3=NCCCN3)c2)CC1)C(=O)O"
## Result 1.4

## Task What value of IC50 on αvβ3 integrin (Homo sapiens, UniProt P05106+P06756) does CC(C)COC(=O)N[C@@H](CNC(=O)C1CCN(c2cccc(NC3=NCC(O)CN3)c2)CC1)C(=O)O (stereo partly drawn) have?
## Result 0.061

## Task Give the reported IC50 for "O=C(N[C@@H](CNC(=O)C1CCN(c2cccc(NC3=NCCCCN3)c2)CC1)C(=O)O)OCc1ccccc1" (system: αvβ3 integrin (Homo sapiens, UniProt P05106+P06756)).
## Result 0.075

## Task Form: Entry = "CCCCCCCCOC(=O)N[C@@H](CNC(=O)C1CCN(c2cccc(NC3=NCCCN3)c2)CC1)C(=O)O" | System = αvβ3 integrin (Homo sapiens, UniProt P05106+P06756) | IC50 = ____
## Result 0.1

Cited source: patent US7176199B2
